Reference source: patent US12037395

Hi there, I'd appreciate the recorded kon for every entry that follows.
STUDY_TARGET: T1, recombinant human PD-1-his (Sino biological, #10377-H08H) (human, UniProt Q15116 25-167)
T1 construct: Bought protein; also called Human PD-1-his protein; not shown: his tag
T1 sequence (Q15116 25-167 limits assumed): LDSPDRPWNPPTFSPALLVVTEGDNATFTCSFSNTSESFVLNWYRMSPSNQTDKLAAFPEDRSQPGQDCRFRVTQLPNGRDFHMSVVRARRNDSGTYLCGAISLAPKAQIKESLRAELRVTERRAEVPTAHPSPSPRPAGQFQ
ASSAY_INFO: SPR (Biacore T200), antibody captured, antigen flowed
Numeric answer only, unit M⁻¹ s⁻¹ assumed.

## Task Would you mind telling me what kon value was observed for mouse anti-PD-1 monoclonal antibody C1E2 (antibody, mouse IgG1, kappa, V domains shown, Purified from hybridoma; Constant regions tied only generically to 'mouse antibodies') VH: QVQLQQSGAELVRPGTSVKISCKASGYTFTNYWLGWVKQRPGHGLEWIGDIYPGGGYTNYNENFKGKATLTADTSSSTAYMQLSSLTSEDSAVFFCARGYGTNYWYFDVWGAGTTVTVSS VL: SIVMTQTPKFLLVSAGDRVTITCKASQSVSNDVAWYQQKPGQSPKLLIYYAFHRYTGVPDRFTGSGYGTDFTFTISTVQAEDLAVYFCQQDYSSPYTFGGGTKLEIKR ?
## Result 153000

## Task Quick check: kon of mouse anti-PD-1 monoclonal antibody 2G2 (antibody, mouse IgG1, kappa, V domains shown, Purified from hybridoma; Constant regions tied only generically to 'mouse antibodies'; also called Clone 2G2) VH: EVQLVESGGDLVKPGGSLKLSCTASGFTFSYYGMSWVRQTPDKRLEWVATISSGSSFTYSPDSVKGRFTISRDNAKNTLYLQMNSLKSEDTAIYYCTRREGIYDASWDYSMDYWGQGTSVTVSS VL: DVLMTQTPLSLPVSLGDQASISCRSSQSIIRSNGNTYLEWYLQKPGQSPKLLIYKVSNRFSGVPDRFSGSGSGTDFTLKISRVEADDLGLYYCFQGSHVPWTFGGGTKLEIKR ?
## Result 163000
